- System: A549/ATCC NSCLC
- assayProtocol: NCI-60 one-dose screen, 48 h (100 = growth as untreated, 0 = no growth, -100 = all killed)
- assayConditions: 10 µM
About 83,000 compounds went through this panel and 20% of them were active in at least one assay; those are over-represented in the sample as a whole.
Label 1 when growth < 20%; otherwise 0.

molecule	assignedCategory
Cc1ccc(CNc2nc3ccc(OC/C(=C/F)CN)cc3o2)cn1	0
COc1cc2c(O[C@@H]3OC[C@H](OC(C)=O)[C@H](OC(C)=O)[C@H]3O)c3c(c(-c4ccc5c(c4)OCO5)c2cc1OC)C(=O)OC3	1
NC1CCc2cc(O)c(O)cc2C1 (stereo not given)	0
CC1=C2C(=C[C@@](C)(COC(=O)c3ccc(S(=O)(=O)F)cc3)[C@@H]2O)C(=O)[C@](C)(O)C12CC2	1
C=C1[C@@H](C)C2[C@H](Cc3ccccc3)NC(=O)[C@]23[C@H](OC(C)=O)/C=C/[C@@](C)(O)C(=O)[C@@H](C)C/C=C/[C@H]3[C@@H]1O (stereo not given in full)	0

* * *

- System: OVCAR-3 ovarian
- assayProtocol: NCI-60 one-dose screen, 48 h (100 = growth as untreated, 0 = no growth, -100 = all killed)
- assayConditions: 10 µM
About 83,000 compounds went through this panel and 20% of them were active in at least one assay; those are over-represented in the sample as a whole.

compound	measurementUnit	growth
CC1=C[C@H]2O[C@@H]3C[C@H]4OC(=O)/C=C\C=C\[C@H]([C@@H](C)O)OCC/C(C)=C/C(=O)OC[C@@]2(CC1)[C@]4(C)[C@]31CO1	%	-19.2
COc1cc2c(O[C@@H]3OC[C@H](OC(C)=O)[C@H](OC(C)=O)[C@H]3O)c3c(c(-c4ccc5c(c4)OCO5)c2cc1OC)C(=O)OC3	%	59.4
CCC(C)[C@H]1C(=O)O[C@H](C(C)C)C(=O)N(C)[C@@H](C(C)C)C(=O)O[C@H](C(C)C)C(=O)N(C)[C@@H](C(C)C)C(=O)O[C@H](C(C)C)C(=O)N1C (stereo not given in full)	%	19.9
CC1=C2C(=C[C@@](C)(COS(C)(=O)=O)[C@@H]2O)C(=O)[C@](C)(O)C12CC2	%	7.64
CC1=C[C@H]2O[C@@H]3C[C@H]4OC(=O)/C=C\C=C\[C@H]([C@@H](C)O)OCC[C@@H](C)[C@H](O)C(=O)OC[C@@]2(CC1)[C@]4(C)[C@]31CO1	%	-18.2
COc1cc2c(O[C@@H]3OC[C@H](O)[C@H](O)[C@H]3O)c3c(c(-c4ccc5c(c4)OCO5)c2cc1OC)C(=O)OC3	%	80.2
C/C=C/CC(C)C(O)[C@H](NC(=O)[C@@H]1CCCN1C(=O)C(C)(C)NC(=O)CCCCCCCCC)C(=O)NC(C)(C)C(=O)N[C@@H](CCC(N)=O)C(=O)N[C@H](CCC(N)=O)C(=O)NC(C)(C)C(=O)NC(C)(C)C(=O)N[C@@H](CCC(N)=O)C(=O)N[C@H](CC(C)C)C(=O)N[C@H](CO)CC(C)C (stereo not given in full)	%	-18.7
C=C1[C@@H](C)C2[C@H](Cc3ccccc3)NC(=O)[C@]23[C@H](OC(C)=O)/C=C/[C@@](C)(O)C(=O)[C@@H](C)C/C=C/[C@H]3[C@@H]1O (stereo not given in full)	%	81.2
C[C@@H]1CCC/C=C/[C@H]2C[C@@H](O)C[C@@H]2[C@@H](O)/C=C/C(=O)O1	%	-1.9
CC1=C(CN(O)C(N)=O)C2=C(C)C3(CC3)[C@@](C)(O)C(=O)C2=C1	%	-26.9
CC1=C2C(=C[C@@](C)(C=O)[C@@H]2O)C(=O)[C@](C)(O)C12CC2	%	-10.1
CC1=C2C(=O)[C@](C)(CO)C=C2C(=O)[C@](C)(O)C12CC2	%	4.36
CC(C)=CCc1c2c(c(O)c3c1O[C@]14C(=C[C@@H]5C[C@H]1C(C)(C)O[C@@]4(C/C=C(/C)C(=O)O)C5=O)C3=O)C=CC(C)(C)O2	%	-93.9
C/C=C\C(=O)O[C@@H]1CC2O[C@@H]3C=C(C)C(=O)C[C@]3(C)[C@]1(C)[C@]21CO1	%	-3.17
COc1cccc2c1cc([N+](=O)[O-])c1c(C(=O)O)cc3c(c12)OCO3	%	126

* * *

- System: MDA-MB-435 melanoma
- assayProtocol: NCI-60 one-dose screen, 48 h
- assayConditions: 10 µM
About 83,000 compounds went through this panel and 20% of them were active in at least one assay; those are over-represented in the sample as a whole. The source made the active and inactive calls. Rule for the calls: active = growth percent below 10; inactive = the rest.
Outcome codes: Y = active, N = inactive

molecule	assignedCategory
CC(=O)O[C@@H]1[C@@H]2O[C@H]2[C@@](C)(O)C(=O)[C@@H](C)C/C=C/[C@H]2[C@@H]3O[C@]3(C)[C@@H](C)C3[C@H](Cc4ccccc4)NC(=O)[C@@]312 (some centres not stated)	N
N#Cc1c(-n2c(Br)c(Br)c3cc(Br)ccc32)[nH]c2c(Br)cc(Br)cc12	Y
CC1=C[C@H]2O[C@@H]3C[C@H]4OC(=O)/C=C\C=C\[C@H]([C@@H](C)O)OCC/C(C)=C/C(=O)OC[C@@]2(CC1)[C@]4(C)[C@]31CO1	Y
CC1=C(CN(O)C(N)=O)C2=C(C)C3(CC3)[C@](C)(O)C(=O)C2=C1	Y
COc1cc2c(O[C@@H]3OC[C@H](OC(C)=O)[C@H](OC(C)=O)[C@H]3O)c3c(c(-c4ccc5c(c4)OCO5)c2cc1OC)C(=O)OC3	Y
NC1CCc2cc(O)c(O)cc2C1 (configuration not stated)	N
CC1=C2C(=C[C@@](C)(COC(=O)c3ccc(S(=O)(=O)F)cc3)[C@@H]2O)C(=O)[C@](C)(O)C12CC2	Y

* * *

- System: SF-295 CNS
- assayProtocol: NCI-60 one-dose screen, 48 h (100 = growth as untreated, 0 = no growth, -100 = all killed)
- assayConditions: 10 µM
- Protocol: Cells are grown in 96 well plates and exposed to the test compound for 48 hours. Compounds are tested at a single concentration, which is 10^-5 M for most compounds. The reported endpoint is percent growth (GI% or GIPRCNT), where numbers from 0 - 100% represent growth inhibition, and numbers from -100% - 0 represent cell death. For example, a value of 40 represents 60% growth inhibition. A value of 0 means no net growth occurred over the course of the experiment. […]
The panel holds about 83,000 compounds, 20% with a hit somewhere; the sample as a whole holds those more often.
Attribute: growth

compound	testedTarget	measurementUnit	growth
COC(=O)[C@H]1[C@@H](O)[C@@]2(O)c3c(OC)cc(OC)cc3O[C@@]2(c2ccc(OC)cc2)[C@@H]1c1ccccc1	SF-295 CNS	%	-14.4
COc1cc2c(cc1OC)[C@@H]1N(CC2)C(=O)c2ccccc2[C@@]1(C)C(=O)O	SF-295 CNS	%	101
CC1=C[C@H]2O[C@@H]3C[C@@H](O)[C@](C)([C@@]2(C)CC1)[C@@]31CO1	SF-295 CNS	%	27.2
C=C1[C@@H](C)C2[C@H](Cc3ccccc3)NC(=O)[C@]23[C@H](OC(C)=O)/C=C/[C@@](C)(O)C(=O)[C@@H](C)C/C=C/[C@H]3[C@@H]1O (stereo partly drawn)	SF-295 CNS	%	51.4
CC1=C2C(=O)[C@](C)(CO)C=C2C(=O)[C@](C)(O)C12CC2	SF-295 CNS	%	6.45
CC1=C[C@H]2O[C@@H]3C[C@H]4OC(=O)/C=C\C=C\[C@H]([C@@H](C)O)OCC[C@@H](C)[C@H](O)C(=O)OC[C@@]2(CC1)[C@]4(C)[C@]31CO1	SF-295 CNS	%	-38.8
COc1cc(OC)c(S(=O)(=O)N(CCCl)CCCl)cc1C(=O)/C=C/c1ccc(Cl)cc1	SF-295 CNS	%	88.7
CC1=C[C@H]2O[C@@H]3C[C@H]4OC(=O)/C=C\C=C\[C@H]([C@@H](C)O)OCC/C(C)=C/C(=O)OC[C@@]2(CC1)[C@]4(C)[C@]31CO1	SF-295 CNS	%	-37.5
N#Cc1c(-n2c(Br)c(Br)c3cc(Br)ccc32)[nH]c2c(Br)cc(Br)cc12	SF-295 CNS	%	-67
N#Cc1nc(-c2ccccc2)oc1N1CCC(S(=O)(=O)F)CC1	SF-295 CNS	%	100
CC(C)=CCc1c2c(c(O)c3c1O[C@]14C(=C[C@@H]5C[C@H]1C(C)(C)O[C@@]4(C/C=C(/C)C(=O)O)C5=O)C3=O)C=CC(C)(C)O2	SF-295 CNS	%	-64.5
CN(CCF)/N=N/c1nc[nH]c1C(N)=O	SF-295 CNS	%	19.9
CCC(C)[C@H]1C(=O)O[C@H](C(C)C)C(=O)N(C)[C@@H](C(C)C)C(=O)O[C@H](C(C)C)C(=O)N(C)[C@@H](C(C)C)C(=O)O[C@H](C(C)C)C(=O)N1C (stereo partly drawn)	SF-295 CNS	%	9.15
COC1[C@@H]2C[C@H]3C(C)(C)O[C@@](C/C=C(/C)C(=O)O)(C2=O)[C@]32Oc3c(CC=C(C)C)c4c(c(O)c3C(=O)[C@H]12)C=CC(C)(C)O4 (stereo partly drawn)	SF-295 CNS	%	-55.2
CC1=C(CCC=NNC(N)=O)C2=C(C)C3(CC3)[C@@](C)(O)C(=O)C2=C1	SF-295 CNS	%	-6.5
COc1cc2c(O[C@@H]3OC[C@H](OC(C)=O)[C@H](OC(C)=O)[C@H]3O)c3c(c(-c4ccc5c(c4)OCO5)c2cc1OC)C(=O)OC3	SF-295 CNS	%	-43
CC1=C2C(=C[C@@](C)(COC(=O)c3ccc(S(=O)(=O)F)cc3)[C@@H]2O)C(=O)[C@](C)(O)C12CC2	SF-295 CNS	%	-5.19
CC1=C(CN(O)C(N)=O)C2=C(C)C3(CC3)[C@@](C)(O)C(=O)C2=C1	SF-295 CNS	%	-11.4
